- Tested on: HARA
- assay: relative viability (nuclei count vs DMSO), 5 days (fraction); higher = more cells survive
- details: first compound 2.53 µM
Assign classes using reported relative viability values and the ranges bottom bin (below 0.6), middle bin (0.6 to below 0.8), top bin (0.8 or more), please.

| compound | category label |
| --- | --- |
| O=c1cc(-c2cccc3c2Sc2ccccc2S3)oc(N2CCOCC2)c1 + N=C(N)NC(=N)NCCc1ccccc1 [Phenformin] (partner 250 µM) | bottom bin |
| O=c1cc(-c2cccc3c2Sc2ccccc2S3)oc(N2CCOCC2)c1 + C[C@]1(O)C[C@@H](c2nc(-c3ccc4ccc(-c5ccccc5)nc4c3)c3c(N)nccn32)C1 [Linsitinib] (partner 1 µM) | top bin |
| COc1nc(C)cnc1NS(=O)(=O)c1cccnc1-c1ccc(-c2nnco2)cc1 [Zibotentan] + CS(=O)(=O)N1CCN(Cc2cc3nc(-c4cccc5[nH]ncc45)nc(N4CCOCC4)c3s2)CC1 [Pictilisib] (partner 1 µM) | bottom bin |
| COc1nc(C)cnc1NS(=O)(=O)c1cccnc1-c1ccc(-c2nnco2)cc1 [Zibotentan] + CC(=O)Nc1cccc(-n2c(=O)n(C3CC3)c(=O)c3c(Nc4ccc(I)cc4F)n(C)c(=O)c(C)c32)c1 [Trametinib] (partner 0.02 µM) | middle bin |
| O=c1cc(-c2cccc3c2Sc2ccccc2S3)oc(N2CCOCC2)c1 + CS(=O)(=O)CCNCc1ccc(-c2ccc3ncnc(Nc4ccc(OCc5cccc(F)c5)c(Cl)c4)c3c2)o1 [Lapatinib] (partner 2 µM) | middle bin |
| O=c1cc(-c2cccc3c2Sc2ccccc2S3)oc(N2CCOCC2)c1 + O=C(c1cc(Cc2n[nH]c(=O)c3ccccc23)ccc1F)N1CCN(C(=O)C2CC2)CC1 [Olaparib] (partner 8 µM) | middle bin |
| O=c1cc(-c2cccc3c2Sc2ccccc2S3)oc(N2CCOCC2)c1 + C[C@@H](Oc1cc(-c2cnn(C3CCNCC3)c2)cnc1N)c1c(Cl)ccc(F)c1Cl [Crizotinib] (partner 1 µM) | top bin |
| O=c1cc(-c2cccc3c2Sc2ccccc2S3)oc(N2CCOCC2)c1 + CC(C)C[C@H](NC(=O)[C@H](Cc1ccccc1)NC(=O)c1cnccn1)B(O)O [Bortezomib] (partner 0.002 µM) | top bin |
| O=c1cc(-c2cccc3c2Sc2ccccc2S3)oc(N2CCOCC2)c1 + CS(=O)(=O)N1CCN(Cc2cc3nc(-c4cccc5[nH]ncc45)nc(N4CCOCC4)c3s2)CC1 [Pictilisib] (partner 1 µM) | bottom bin |
| O=c1cc(-c2cccc3c2Sc2ccccc2S3)oc(N2CCOCC2)c1 + Cc1nc(Nc2ncc(C(=O)Nc3c(C)cccc3Cl)s2)cc(N2CCN(CCO)CC2)n1 [Dasatinib] (partner 0.075 µM) | bottom bin |

---

- Tested on: NCI-H2405
- assay: relative viability (nuclei count vs DMSO), 5 days (fraction); higher = more cells survive
- details: first compound 1 µM
List of relative viability values.
property label: relative viability

| molecule | measured |
| --- | --- |
| O=c1cc(N2CCOCC2)oc2c(-c3cccc4c3sc3ccccc34)cccc12 + CCNC(=O)c1noc(-c2cc(C(C)C)c(O)cc2O)c1-c1ccc(CN2CCOCC2)cc1 [Luminespib] (partner 0.01 µM) | 0.681 |
| CCN(CC)CCCCNc1ncc2cc(-c3cc(OC)cc(OC)c3)c(NC(=O)NC(C)(C)C)nc2n1 + CC(=O)c1c(C)c2cnc(Nc3ccc(N4CCNCC4)cn3)nc2n(C2CCCC2)c1=O [Palbociclib] (partner 0.5 µM) | 0.52 |
| O=c1cc(N2CCOCC2)oc2c(-c3cccc4c3sc3ccccc34)cccc12 + Cc1cc(Nc2cc(N3CCN(C)CC3)nc(Sc3ccc(NC(=O)C4CC4)cc3)n2)n[nH]1 [Tozasertib] (partner 0.1 µM) | 0.75 |
| CCN(CC)CCCCNc1ncc2cc(-c3cc(OC)cc(OC)c3)c(NC(=O)NC(C)(C)C)nc2n1 + CC1(C)CCC(c2ccc(Cl)cc2)=C(CN2CCN(c3ccc(C(=O)NS(=O)(=O)c4ccc(N[C@H](CCN5CCOCC5)CSc5ccccc5)c(S(=O)(=O)C(F)(F)F)c4)cc3)CC2)C1 [Navitoclax] (partner 0.5 µM) | 0.789 |
| CCN(CC)CCCCNc1ncc2cc(-c3cc(OC)cc(OC)c3)c(NC(=O)NC(C)(C)C)nc2n1 + Cc1nc(NC(=O)N2CCC[C@H]2C(N)=O)sc1-c1ccnc(C(C)(C)C(F)(F)F)c1 [Alpelisib] (partner 2 µM) | 0.72 |
| CCN(CC)CCCCNc1ncc2cc(-c3cc(OC)cc(OC)c3)c(NC(=O)NC(C)(C)C)nc2n1 + C[C@]1(O)C[C@@H](c2nc(-c3ccc4ccc(-c5ccccc5)nc4c3)c3c(N)nccn32)C1 [Linsitinib] (partner 1 µM) | 0.817 |
| CCN(CC)CCCCNc1ncc2cc(-c3cc(OC)cc(OC)c3)c(NC(=O)NC(C)(C)C)nc2n1 + O=C(c1cc(Cc2n[nH]c(=O)c3ccccc23)ccc1F)N1CCN(C(=O)C2CC2)CC1 [Olaparib] (partner 8 µM) | 0.928 |
| O=c1cc(N2CCOCC2)oc2c(-c3cccc4c3sc3ccccc34)cccc12 + C[C@@H](Oc1cc(-c2cnn(C3CCNCC3)c2)cnc1N)c1c(Cl)ccc(F)c1Cl [Crizotinib] (partner 1 µM) | 0.84 |
| O=c1cc(N2CCOCC2)oc2c(-c3cccc4c3sc3ccccc34)cccc12 + COc1cc2c(Oc3ccc(NC(=O)C4(C(=O)Nc5ccc(F)cc5)CC4)cc3F)ccnc2cc1OCCCN1CCOCC1 [Foretinib] (partner 0.25 µM) | 1.02 |
